# protocol.notes: Solubility Studies in solvents
# Assay type: physicochemical
# assay.conditions: acetone, 25 °C, organic solvent or mixture, thermodynamic from solid, Acetone, about 25 °C; read-out: Approximate Solubility
parameter: solubility

Request the reported solubility associated with CCOc1cc(C(CS(C)(=O)=O)N2C(=O)c3cccc(NC(C)=O)c3C2=O)ccc1OC (single isomer, unassigned; (+)) [Form B]
> 50 mg/mL

###

# protocol.notes: Stability Studies of solid forms
# Format: physicochemical
# assay.conditions: EQ in water at 40 °C for 4 weeks
parameter: Analysis by XRPD (resulting form)

CCOc1cc(C(CS(C)(=O)=O)N2C(=O)c3cccc(NC(C)=O)c3C2=O)ccc1OC (single isomer, unassigned; (+)) [Form D] ... Form B
CCOc1cc(C(CS(C)(=O)=O)N2C(=O)c3cccc(NC(C)=O)c3C2=O)ccc1OC (single isomer, unassigned; (+)) [Form B] ... Form B

###

# System: cAMP
# protocol.notes: PGE2-induced cAMP elevation in human PBMC
# Assay type: cell-based
# assay.conditions: PGE2 (10µM)
parameter: pEC50
For clarity, pEC50 is expressed as the negative log10 of concentration in mol/L.

Request the reported pEC50 associated with CCOc1cc(C(CS(C)(=O)=O)N2C(=O)c3cccc(NC(C)=O)c3C2=O)ccc1OC (single isomer, unassigned; (+)) [Compound A]
5.80

Request the reported pEC50 associated with CCOc1cc(C(CS(C)(=O)=O)N2C(=O)c3cccc(NC(C)=O)c3C2=O)ccc1OC (racemic) [Racemic Compound]
5.51

###

# protocol.notes: Solubility Studies in solvents
# Assay type: physicochemical
# assay.conditions: methyl t-butyl ether, 25 °C, organic solvent or mixture, thermodynamic from solid, Methyl t-butyl ether, about 25 °C; read-out: Approximate Solubility
parameter: solubility (µg/mL)
Reply numerically in µg/mL, unit not repeated.

Request the reported solubility associated with CCOc1cc(C(CS(C)(=O)=O)N2C(=O)c3cccc(NC(C)=O)c3C2=O)ccc1OC (single isomer, unassigned; (+)) [Form B]
1170

###

# protocol.notes: Stability Studies of solid forms
# Assay type: physicochemical
# assay.conditions: EQ in ethanol at 40 °C for 4 weeks
parameter: Analysis by XRPD (resulting form)

CCOc1cc(C(CS(C)(=O)=O)N2C(=O)c3cccc(NC(C)=O)c3C2=O)ccc1OC (single isomer, unassigned; (+)) [Form D] ... Form B
CCOc1cc(C(CS(C)(=O)=O)N2C(=O)c3cccc(NC(C)=O)c3C2=O)ccc1OC (single isomer, unassigned; (+)) [Form B] ... Form B

###

# protocol.notes: Stability Studies of solid forms
# Assay type: physicochemical
# assay.conditions: EQ in toluene at 40 °C for 4 weeks
parameter: Analysis by XRPD (resulting form)

CCOc1cc(C(CS(C)(=O)=O)N2C(=O)c3cccc(NC(C)=O)c3C2=O)ccc1OC (single isomer, unassigned; (+)) [Form D] ... Form C
CCOc1cc(C(CS(C)(=O)=O)N2C(=O)c3cccc(NC(C)=O)c3C2=O)ccc1OC (single isomer, unassigned; (+)) [Form C] ... Form C
CCOc1cc(C(CS(C)(=O)=O)N2C(=O)c3cccc(NC(C)=O)c3C2=O)ccc1OC (single isomer, unassigned; (+)) [Form A] ... Form C

###

# protocol.notes: Solubility Studies in solvents
# Type: physicochemical
# assay.conditions: ethanol:water (1:1), 25 °C, aqueous with cosolvent or surfactant or cyclodextrin, thermodynamic from solid, Ethanol: Water (1:1), about 25 °C; read-out: Approximate Solubility
parameter: solubility
Answer with the number, then the unit.

Request the reported solubility associated with CCOc1cc(C(CS(C)(=O)=O)N2C(=O)c3cccc(NC(C)=O)c3C2=O)ccc1OC (single isomer, unassigned; (+)) [Form B]
2860 µg/mL
